# EXPERIMENTAL TARGET: HLA-B*27:03
# PROTOCOL DESCRIPTION: IEDB peptide-MHC binding, purified MHC/competitive/fluorescence; filed as Kd, often an IC50 or EC50 that approximates it; bounds were set here for any values at or beyond the usual limits of such assays
# TEST SETTINGS: source organism: Vibrio vulnificus YJ016
Listed here: items and their measured Kd.

[[record]]
chain_sequence = "SVMSTFFWE"
experimental_target = "HLA-B*27:03"
result_type = "Kd"
observed_result = "≥ 20 µM"


Look up Kd for this sequence: DFISMYFPW
≥ 20 µM

* * *

# EXPERIMENTAL TARGET: HLA-B*27:05
# PROTOCOL DESCRIPTION: IEDB peptide-MHC binding, purified MHC/direct/fluorescence; filed as Kd, often an IC50 or EC50 that approximates it; bounds were set here for any values at or beyond the usual limits of such assays
# TEST SETTINGS: source organism: Reston ebolavirus - Reston
pKd: −log10 of the molar value.
RESULT TYPE: pKd

Look up pKd for this sequence: QLSLRMLSL
≤ 4.70

* * *

# EXPERIMENTAL TARGET: HLA-A*30:01
# PROTOCOL DESCRIPTION: IEDB peptide-MHC binding, purified MHC/competitive/radioactivity; filed as Kd, often an IC50 or EC50 that approximates it; bounds were set here for any values at or beyond the usual limits of such assays
# TEST SETTINGS: source organism: Mammarenavirus guanaritoense
RESULT TYPE: Kd

Look up Kd for this sequence: FYSEESPTEY
≥ 48.7 µM

* * *

Listed here: items and their measured pKd.
# EXPERIMENTAL TARGET: HLA-B*35:01
# PROTOCOL DESCRIPTION: IEDB peptide-MHC binding, purified MHC/competitive/radioactivity; filed as Kd, often an IC50 or EC50 that approximates it; bounds were set here for any values at or beyond the usual limits of such assays
# TEST SETTINGS: source organism: Dengue virus 4 Philippines/H241/1956
Note on pKd: it is the negative log10 of concentration, concentration in mol/L.

Examples with their reported pKd follow.
[[record]]
chain_sequence = "MAILGETAW"
observed_result = 6.99

[[record]]
chain_sequence = "FPQSNSPIED"
observed_result = 6.20

[[record]]
chain_sequence = "LPTYLSSRAK"
observed_result = 4.82


Now let's try a different one.
Look up pKd for this sequence: MAICSAVPT
6.27

* * *

# EXPERIMENTAL TARGET: HLA-A*02:19
# PROTOCOL DESCRIPTION: IEDB peptide-MHC binding, purified MHC/competitive/fluorescence; filed as Kd, often an IC50 or EC50 that approximates it; bounds were set here for any values at or beyond the usual limits of such assays
# TEST SETTINGS: source organism: Burkholderia mallei SAVP1
RESULT TYPE: Kd

Form: Entry = RFNAIWFNH | System = HLA-A*02:19 | Kd = ____
≥ 20 µM

* * *

# EXPERIMENTAL TARGET: HLA-B*39:01
# PROTOCOL DESCRIPTION: IEDB peptide-MHC binding, purified MHC/competitive/fluorescence; filed as Kd, often an IC50 or EC50 that approximates it; bounds were set here for any values at or beyond the usual limits of such assays
# TEST SETTINGS: source organism: Campylobacter jejuni subsp. jejuni NCTC 11168 = ATCC 700819
pKd: −log10 of the molar value.
RESULT TYPE: pKd

Look up pKd for this sequence: AELIDSFTW
≤ 4.70
